Test system: human PKK mRNA
Assay: Antisense inhibition of human PKK mRNA in HepaRG cells, 1,000 nM, MOE/deoxy/cEt oligonucleotides (Example 3)
Type: cell-based
Conditions: Table 27; HepaRG cells, 1,000 nM antisense oligonucleotide; human PKK mRNA
Strand notation (5' to 3'): a small letter for the sugar, then the base; units joined by * are phosphorothioate-linked, units joined directly phosphodiester-linked; [ ] holds rarer units or linkages, { } end groups; capitals alone tell only the bases. e = 2'-O-(2-methoxyethyl) (MOE); k = constrained ethyl (cEt); [5mC] = 5-methylcytosine; d = 2'-deoxy (DNA)
QUANTITY: % inhibition (%)
Only the number, expressed in %, is required.

>  <SUBSTANCE>
548308 (eA*eA*kT*dG*dG*d[5mC]*dA*dG*dG*dT*d[5mC]*d[5mC]*dT*kG*kG*e[5mC]; antisense) [compound 548308]

>  <UNIT_SPEC>
%

>  <% inhibition>
9

$$$$
>  <SUBSTANCE>
548342 (antisense eG*eG*kA*dA*dG*dA*d[5mC]*dT*dT*d[5mC]*d[5mC]*d[5mC]*dT*k[5mC]*kT*eG) [compound 548342]

>  <UNIT_SPEC>
%

>  <% inhibition>
0

$$$$

From here, focus on the item given below.
Please tell me: % inhibition of 548334 (antisense eG*e[5mC]*kT*d[5mC]*dA*d[5mC]*dT*dA*dT*dA*dG*dG*d[5mC]*k[5mC]*k[5mC]*e[5mC]) [compound 548334] , system human PKK mRNA?
69

Data origin: patent US11840686B2
